Where these numbers come from: paper PMC2756588

Target: T1, Sla1-3, P32790
T1 sequence (P32790 344-424, looked up): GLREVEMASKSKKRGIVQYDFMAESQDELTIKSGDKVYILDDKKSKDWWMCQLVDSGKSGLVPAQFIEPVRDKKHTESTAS
Experiment: SPOT array
Conditions: median of control spots 5475
property_label: SPOT intensity
Output spec: single numeric token, no unit.

{"binder": "RLSRLLLSLPPESFT", "SPOT intensity": 45}
{"binder": "LPMNIQPDLPPRKIM", "SPOT intensity": 0}

--- query ---
Data request: Need SPOT intensity, item PSPSSSPPPIPKTAN
Data returned: 0
